# test_system: HiBit-BRG1 fusion protein (Homo sapiens)
# Construct: expressed in transfected cells
# Sequence (P51532 whole entry, the tested form may be a part): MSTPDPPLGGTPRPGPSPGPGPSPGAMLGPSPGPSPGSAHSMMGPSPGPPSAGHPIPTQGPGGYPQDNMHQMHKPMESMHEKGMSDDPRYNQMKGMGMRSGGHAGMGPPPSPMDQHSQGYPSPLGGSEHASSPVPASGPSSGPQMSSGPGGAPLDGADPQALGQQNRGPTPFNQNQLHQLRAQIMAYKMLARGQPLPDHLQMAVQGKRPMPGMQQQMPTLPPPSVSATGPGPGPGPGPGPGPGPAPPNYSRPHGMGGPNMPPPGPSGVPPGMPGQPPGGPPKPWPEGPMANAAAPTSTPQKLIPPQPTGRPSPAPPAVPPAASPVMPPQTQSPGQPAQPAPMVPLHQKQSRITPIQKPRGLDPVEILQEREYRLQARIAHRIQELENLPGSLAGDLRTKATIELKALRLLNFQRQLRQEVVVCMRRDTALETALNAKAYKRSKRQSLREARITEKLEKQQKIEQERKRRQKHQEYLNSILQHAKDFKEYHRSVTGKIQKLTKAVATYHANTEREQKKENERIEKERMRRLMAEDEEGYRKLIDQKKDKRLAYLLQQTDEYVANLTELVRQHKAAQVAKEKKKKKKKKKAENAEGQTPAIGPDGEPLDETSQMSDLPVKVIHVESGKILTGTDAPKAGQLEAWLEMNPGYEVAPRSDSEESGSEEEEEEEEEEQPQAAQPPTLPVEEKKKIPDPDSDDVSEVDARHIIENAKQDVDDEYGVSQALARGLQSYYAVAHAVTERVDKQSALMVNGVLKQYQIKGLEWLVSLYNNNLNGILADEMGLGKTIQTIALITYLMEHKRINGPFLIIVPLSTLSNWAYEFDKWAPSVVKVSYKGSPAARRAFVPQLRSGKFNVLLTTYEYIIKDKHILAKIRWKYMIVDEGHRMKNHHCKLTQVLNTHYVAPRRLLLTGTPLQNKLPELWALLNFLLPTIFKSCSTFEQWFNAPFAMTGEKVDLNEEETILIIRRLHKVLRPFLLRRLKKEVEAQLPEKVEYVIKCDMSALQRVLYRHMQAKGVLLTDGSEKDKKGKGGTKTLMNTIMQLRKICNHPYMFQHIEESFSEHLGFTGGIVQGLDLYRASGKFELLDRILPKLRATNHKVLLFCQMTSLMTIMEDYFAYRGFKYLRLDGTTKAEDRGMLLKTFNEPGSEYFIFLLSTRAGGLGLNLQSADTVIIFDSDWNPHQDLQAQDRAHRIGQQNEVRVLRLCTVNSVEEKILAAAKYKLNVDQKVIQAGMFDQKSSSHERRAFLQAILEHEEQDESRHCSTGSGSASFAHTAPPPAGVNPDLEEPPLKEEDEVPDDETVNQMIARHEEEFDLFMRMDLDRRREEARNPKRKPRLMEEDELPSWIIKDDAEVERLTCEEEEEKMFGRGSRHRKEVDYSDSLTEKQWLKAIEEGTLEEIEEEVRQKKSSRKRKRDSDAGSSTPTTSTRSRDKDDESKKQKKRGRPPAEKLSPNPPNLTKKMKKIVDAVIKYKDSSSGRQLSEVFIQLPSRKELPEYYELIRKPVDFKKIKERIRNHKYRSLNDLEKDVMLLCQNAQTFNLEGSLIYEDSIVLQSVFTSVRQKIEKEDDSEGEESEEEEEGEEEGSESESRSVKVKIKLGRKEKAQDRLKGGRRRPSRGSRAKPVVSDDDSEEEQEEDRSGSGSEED
# measurement_notes: HiBiT-BRG1 cell-based degradation assay (Nano-Glo HiBiT Lytic Detection, 24 h)
# condition_description: HeLa cells expressing HiBit-BRG1 and LgBit, read-out: BRG1 HiBit Degradation IC50
# DC50 per record follows

Examples from the recorded data:
Cc1ncsc1-c1ccc(CNC(=O)[C@@H]2C[C@@H](O)CN2C(=O)[C@@H](NC(=O)CCCCCC(=O)NCCOc2cc(-c3cccc(-c4csc(NC(=O)CNC(=O)c5ccn(S(C)(=O)=O)c5)n4)c3)ccn2)C(C)(C)C)cc1 :: 0.1 to 1 µM
Cc1ncsc1-c1ccc(CNC(=O)[C@@H]2C[C@@H](O)CN2C(=O)[C@@H](NC(=O)COCC(=O)NCc2cccc(-c3cccc(-c4csc(NC(=O)CNC(=O)c5ccn(S(C)(=O)=O)c5)n4)c3)c2)C(C)(C)C)cc1 :: > 10 µM
Cc1ncsc1-c1ccc(CNC(=O)[C@@H]2C[C@@H](O)CN2C(=O)[C@@H](NC(=O)CCCCCCCNC(=O)CCCOC[C@H](NC(=O)c2ccn(S(C)(=O)=O)c2)C(=O)Nc2nc(-c3ccccc3)cs2)C(C)(C)C)cc1 :: > 10 µM
CS(=O)(=O)n1ccc(C(=O)N[C@@H](CCOCCCC(=O)NCCOc2cccc(OCCNc3ccc4c(c3)C(=O)N(C3CCC(=O)NC3=O)C4=O)c2)C(=O)Nc2nc(-c3ccccc3)cs2)c1 (stereo partly drawn) :: > 10 µM

Sample Cc1c(C(=O)NCC(=O)Nc2nc(-c3cccc(-c4ccnc(N(C)CC(=O)N5CCC(C6CCN(C(=O)COc7cccc8c7C(=O)N(C7CCC(=O)NC7=O)C8=O)CC6)CC5)c4)c3)cs2)cn(S(=O)(=O)C(C)C)c1C (stereo not drawn) , system: HiBit-BRG1 fusion protein (Homo sapiens). Its DC50 is > 10 µM

# lookup: CS(=O)(=O)n1ccc(C(=O)NCC(=O)Nc2nc(-c3cccc(-c4ccnc(OCCNC(=O)CCOCCOCCOc5cccc6c5C(=O)N(C5CCC(=O)NC5=O)C6=O)c4)c3)cs2)c1 (stereo not drawn) on HiBit-BRG1 fusion protein (Homo sapiens), DC50 = 0.1 to 1 µM

Assay HiBit-BRG1 fusion protein (Homo sapiens), sample Cc1ncsc1-c1ccc(CNC(=O)[C@@H]2C[C@@H](O)CN2C(=O)[C@@H](NC(=O)CCCCCNC(=O)CCCOC[C@H](NC(=O)c2ccn(S(C)(=O)=O)c2)C(=O)Nc2nc(-c3ccccc3)cs2)C(C)(C)C)cc1 , DC50 read: > 10 µM

Tested on HiBit-BRG1 fusion protein (Homo sapiens): CN(CCNC(=O)C1(c2cc(-c3cccc(-c4csc(NC(=O)CNC(=O)c5ccn(S(C)(=O)=O)c5)n4)c3)ccn2)CC1)CCNc1cccc2c1C(=O)N(C1CCC(=O)NC1=O)C2=O (stereo not drawn) . Observed DC50: > 10 µM

Considering CS(=O)(=O)n1ccc(C(=O)NCC(=O)Nc2nc(-c3cccc(-c4ccnc(C5(C(=O)NCCNc6ccc7c(c6)C(=O)N(C6CCC(=O)NC6=O)C7=O)CC5)c4)c3)cs2)c1 (stereo not drawn) , its DC50 with HiBit-BRG1 fusion protein (Homo sapiens) was recorded as < 0.1 µM
